- System: SK-MEL-28 melanoma
- method_description: NCI-60 one-dose screen, 48 h (100 = growth as untreated, 0 = no growth, -100 = all killed)
- conditions: 10 µM unless noted
Compounds without any hit were thinned out: in the full panel of roughly 83,000, 20% have a hit.
Class boundaries, taken from values of growth, are as follows: band 1 (below 40%), band 2 (40% to below 70%), band 3 (70% or more)

Hi, small favor: classify `COc1ccc(S(=O)(=O)NCCCNc2cc(-c3c(-c4cccc(OC)c4)nc4sccn34)ccn2)cc1` by its growth when you get a moment.
band 2

Hi, small favor: classify `Cc1ccn2c(-c3csc(Nc4cccc(O)c4)n3)c(C)nc2c1` by its growth when you get a moment.
band 1

Hi, small favor: classify `CCN(CC)CCCCNc1ccc(NCCCCN(CC)CC)c2c1C(=O)c1ccccc1C2=O` by its growth when you get a moment.
band 3

Hi, small favor: classify Nc1nc2c(c3ncccc13)C(c1cccc(Br)c1)Cc1ncccc1-2 (configuration not stated) by its growth when you get a moment.
band 2

Hi, small favor: classify CC1=C(C)C(=O)OC([C@](C)(O)[C@]2(O)CC[C@@]3(O)[C@@H]4C[C@H]5O[C@]56CC=CC(=O)[C@]6(C)[C@H]4CC[C@]23COC(=O)c2ccc(C)o2)C1 (some centres not stated) by its growth when you get a moment.
band 1

###

- Tested on: LOX IMVI melanoma
- method_description: NCI-60 one-dose screen, 48 h
- conditions: 10 µM unless noted
The panel holds about 83,000 compounds, 20% with a hit somewhere; the sample as a whole holds those more often. Calls of active or inactive are those of the source. Rule for the calls: active = growth percent below 10; inactive = the rest.
Just give me one of these, please: active, inactive

Known results for molecules:
{"molecule": "Cc1cc(N/N=C/c2nc(-c3ccc(Cl)cc3)oc2C)c2cc(Br)ccc2n1", "label_value": "active"}
{"molecule": "O=C(Nc1nc(-c2ccccc2)cc(-c2ccc(Cl)cc2)n1)c1ccncc1", "label_value": "inactive"}
{"molecule": "O=C1CCc2c(sc3[nH]c(=S)n(Cc4ccccc4)c(=O)c23)C1", "label_value": "inactive"}

What call does the record list for `COc1cc(/C=N\NC(=O)CN2CCN(c3cc4c(cc3F)c(=O)c(C(=O)N/N=C/c3ccc(O)c(OC)c3)cn4C3CC3)CC2)ccc1O` ?
active

What call does the record list for `CCCC(=O)Oc1ccc(/C(=C(/CC)Cc2ccccc2)c2ccc(OCCN3CCCC3)cc2)cc1` ?
inactive

What call does the record list for `O=C(Nc1cccc2c1C(=O)c1cccc(Nc3cccc4c3C(=O)c3cccc(NC(=O)c5ccccc5)c3C4=O)c1C2=O)c1ccccc1` ?
inactive

###

- Tested on: A549/ATCC NSCLC
- method_description: NCI-60 one-dose screen, 48 h
- conditions: 10 µM unless noted
About 83,000 compounds went through this panel and 20% of them were active in at least one assay; those are over-represented in the sample as a whole. Active and inactive are the calls of the source. Rule for the calls: active = growth percent below 10; inactive = the rest.
Just give me one of these, please: active, inactive

{"molecule": "Nc1cccc(-c2nc3sccn3c2-c2ccnc(NCCCNS(=O)(=O)c3ccc(C(F)(F)F)cc3)n2)c1", "tested_on": "A549/ATCC NSCLC", "label_value": "inactive"}
{"molecule": "CC(=O)Nc1ccc2c(c1)c(NC(C)=O)nn2C(=O)Nc1ccc(Cc2ccccc2)cc1", "tested_on": "A549/ATCC NSCLC", "label_value": "inactive"}

What call does the record list for `COc1cccc(NC(=O)c2sc3nc4c(cc3c2N)CN(Cc2ccccc2)CC4)c1` ?
inactive

What call does the record list for `COc1ccc(/C=N\NC(=O)CN2CCN(c3cc4c(cc3F)c(=O)c(C(=O)N/N=C/c3ccc(OC)cc3)cn4C3CC3)CC2)cc1` ?
inactive

What call does the record list for N#CC1=C(N)Oc2c(ccc3ccccc23)C1c1cccs1 (centres undefined) ?
inactive

What call does the record list for `CCN(CC)CCCNc1cccc2c(SCc3ccccc3)ccnc12` ?
inactive

What call does the record list for `CCN(CC)CC(C)(C)C(=O)/C=C/c1ccccc1` ?
inactive

What call does the record list for `C#Cc1nc(Nc2cc(C)[nH]n2)c2ccccc2n1` ?
active

What call does the record list for `CCCCCCCCCc1cc(CN2CCCCC2)c(O)c(CN2CCCCC2)c1` ?
inactive

What call does the record list for `CN1CCN(Cc2ccc(NC(=O)c3cncc(C#Cc4cnc(N)c5cccnc45)c3)cc2C(F)(F)F)CC1` ?
inactive

What call does the record list for `CC(=O)C1=C(O)C=C2Oc3c(C(=O)/C=C/c4c(Cl)cccc4Cl)c(O)c(C)c(O)c3[C@]2(C)C1=O` ?
active

What call does the record list for `COc1ccc(-c2cc(/C=C3\C(=O)Nc4ccc(Cl)cc43)[nH]n2)cc1` ?
inactive

What call does the record list for `Brc1cccc(-c2cc(-c3ccc4c(c3)OCCO4)[nH]n2)c1` ?
inactive

What call does the record list for `O=C(O)c1cn(C2CC2)c2cc(N3CCN(Cc4nc5c(cnn5-c5ccc([N+](=O)[O-])cc5)c(=O)[nH]4)CC3)c(F)cc2c1=O` ?
inactive
